molecular target: Human SARS-CoV-2_Wuhan S (SmT1) (SARS-CoV-2 (Wuhan), UniProt P0DTC2 14-1208); experiment: SPR, VHH over immobilised S
PROPERTY_NAME: kon (M⁻¹ s⁻¹)
Only the number, expressed in M⁻¹ s⁻¹, is required.

Ask: For the binder NRCoV2-MRed19 VHH (VHH) VHH: EVQLVESGGGLVQPGGSLRLSCAASTIIFKGQTMGWFRQAPGNERELVATMTTSGSANYADSVKGRFTISRDNEKTVTLQMNSLKPEDTALYYCYMHSVYYGIDYWGKGTQVTVSS , what kon is on record?
Reply: 131000

Ask: For the binder NRCoV2-S2A4 VHH (VHH) VHH: QVQLVQSGGGLVQAGGSLRLSCAVSGSPFRSNVMEWYRQAPGKQRELVASISTGGSRTYTDSVKGRFTISRDNAKNEAFLQMNSLKPEDTAVYYCHAAARDSHGIYLLDTWGQGTQVTVSS , what kon is on record?
Reply: 34900

Ask: For the binder NRCoV2-SR02 VHH (VHH) VHH: EVQLVDSGGGLVQAGGSLRLSCTASEFTLNYYSIGWFRQSPGKEREGVSCIRYSGGGIDYADSVKGRFTISRDNAKNTVYLTMNSLKPEDTAVYYCAADRLYSRACPTAGGRNYWGQGTQVTVSS , what kon is on record?
Reply: 4.98e+06

Ask: For the binder NRCoV2-SR04 VHH (VHH) VHH: QVQLVESGGGLVQAGGSLRLSCAASGRTFSSHTVGWYRQAPGKQRDLVAAISMGGNTNYADYADSVKGRFTISRDNAKNTLYLQMNSLKPEDTAVYYCNTAALVGNRLLPMATITWGQGTQVTVSS , what kon is on record?
Reply: 3.68e+06
